- Test system: Escherichia coli ATCC 26
- procedure.summary: Minimum inhibitory concentration, agar dilution method, EC
- Type: cell-based
- condition.summary: Escherichia coli, ATCC26, pH 7, read-out: minimum inhibitory concentration, EC
endpoint.name: MIC

The compound listed as CO[C@@]12[C@H](COC(N)=O)C3=C(C(=O)C(C)=C(NCCSSCCNC(=O)CC[C@H](N)C(=O)O)C3=O)N1C[C@@H]1N[C@@H]12 shows MIC equal to > 50 µg/mL

The compound listed as CO[C@@]12[C@H](COC(N)=O)C3=C(C(=O)C(C)=C(NCCSSCCNC(=O)C[C@H](N)C(=O)O)C3=O)N1C[C@@H]1N[C@@H]12 shows MIC equal to > 50 µg/mL

The compound listed as CO[C@@]12[C@H](COC(N)=O)C3=C(C(=O)C(C)=C(NCCSSCCSC(C)=O)C3=O)N1C[C@@H]1N[C@@H]12 shows MIC equal to > 40 µg/mL

###

- Test system: Klebsiella pneumoniae ATCC 10031
- procedure.summary: microbe, parasite or virus in culture
- Format: cell-based
- condition.summary: ATCC10031, pH 7, read-out: minimum inhibitory concentration, KP
Would you kindly list MIC for each of these molecules?

The molecule listed as CO[C@@]12[C@H](COC(N)=O)C3=C(C(=O)C(C)=C(NCCSSCCC(N)=O)C3=O)N1C[C@@H]1N[C@@H]12 shows MIC equal to 1.3 µg/mL

The molecule listed as CC1=C(NCCSSCCNC(=O)CC[C@H](N)C(=O)O)C(=O)C2=C(C1=O)N1C[C@H]3[C@H](N3C)[C@]1(O)[C@H]2COC(N)=O (some centres unmarked) shows MIC equal to > 100 µg/mL

The molecule listed as CO[C@@]12[C@H](COC(N)=O)C3=C(C(=O)C(C)=C(NCCSSCCNC(=O)CC[C@@H](N)C(=O)O)C3=O)N1C[C@@H]1N[C@@H]12 shows MIC equal to 0.8 µg/mL

The molecule listed as CO[C@@]12[C@H](COC(N)=O)C3=C(C(=O)C(C)=C(NCCSSCCSC(C)=O)C3=O)N1C[C@@H]1N[C@@H]12 shows MIC equal to 0.63 µg/mL

The molecule listed as CO[C@@]12[C@H](COC(N)=O)C3=C(C(=O)C(C)=C(NCCSSCCNC(=O)C[C@H](N)C(=O)O)C3=O)N1C[C@@H]1N[C@@H]12 shows MIC equal to 0.8 µg/mL

###

- procedure.summary: in vivo
- Format: in vivo, mice (ddy strain)
- condition.summary: mouse, in vivo, ip; read-out: (WBC4000/ED50)* = (WBC4000/ED50)/[(WBC4000/ED50) of MMC1]
endpoint.name: selectivity ratio

The molecule listed as CO[C@@]12[C@H](COC(N)=O)C3=C(C(=O)C(C)=C(NCCSSCCNC(=O)CC[C@@H](N)C(=O)O)C3=O)N1C[C@@H]1N[C@@H]12 [Compound 3] shows selectivity ratio equal to 3.02

The molecule listed as CO[C@@]12[C@H](COC(N)=O)C3=C(C(=O)C(C)=C(NCCSSCCNC(=O)C(F)(F)F)C3=O)N1C[C@@H]1N[C@@H]12 [Compound 19] shows selectivity ratio equal to > 0.96

The molecule listed as CO[C@@]12[C@H](COC(N)=O)C3=C(C(=O)C(C)=C(NCCSSCCNC(=O)/C=C(C)/C=C/C=C(C)/C=C/C4=C(C)CCCC4(C)C)C3=O)N1C[C@@H]1N[C@@H]12 [Compound 15] shows selectivity ratio equal to 3
